- Tested on: U87MG cells
- assay.summary: Cellular assay, inhibition of 2-HG production in U87MG cells
- Format: cell-based
- test.context: Homo sapiens, U-87 MG, 48 h
pIC50: −log10 of the molar value.
property.name: pIC50

QUERY: Endpoint output: pIC50 of N#Cc1ccnc(N2C(=O)[C@@H](O)C[C@H]2C(=O)N(c2cccc(F)c2)[C@H](C(=O)NC2CCC(F)(F)CC2)c2ccccc2Cl)c1 [Compound 172] . Value?
RESULT: > 7.00

QUERY: Data request, read-out pIC50, for CN(C)c1cccc(N(C(=O)[C@@H]2CCC(=O)N2c2cc(C#N)ccn2)[C@H](C(=O)NC2CC(F)(F)C2)c2ccccc2Cl)c1 [Compound 161]
RESULT: > 7.00

QUERY: Tell me the measured pIC50 of N#Cc1cc(F)cc(N(C(=O)[C@@H]2CCC(=O)N2c2cc(C#N)ccn2)[C@H](C(=O)NC2CCC(F)(F)CC2)c2ccccc2Cl)c1 [Compound 184] , please.
RESULT: > 7.00

QUERY: Need pIC50, item O=C(NC1CC(F)(F)C1)C(c1ccccc1Cl)N(C(=O)[C@@H]1CCCC(=O)N1c1ncccn1)c1cccc(F)c1 (stereo in doubt) [Compound 20]
RESULT: 6.30 to 7.00

QUERY: Item under review: N#Cc1cc(F)cc(N(C(=O)[C@@H]2CCC(=O)N2c2cc(C#N)ccn2)[C@H](C(=O)NC2CC(F)(F)C2)c2ccccc2)c1 [Compound 211] . Reported pIC50?
RESULT: > 7.00

QUERY: Name the reported pIC50 value associated with the molecule CS(=O)(=O)c1cccc(N(C(=O)[C@@H]2CCC(=O)N2c2cc(C#N)ccn2)C(C(=O)NC2CCC(F)(F)CC2)c2ccccc2Cl)c1 (stereo partly drawn) [Compound 95]
RESULT: > 7.00

QUERY: Would you kindly share the measured pIC50 for COc1cccnc1N1C(=O)CC[C@H]1C(=O)N(c1cccc(F)c1)[C@H](C(=O)NC1CC(F)(F)C1)c1ccccc1Cl [Compound 17] ?
RESULT: 5.70 to 6.00

QUERY: Item under review: O=C(NC1CC(F)(F)C1)[C@H](c1ccccc1Cl)N(C(=O)[C@@H]1CCC(=O)N1c1cnccn1)c1cccc(F)c1 [Compound 18] . Reported pIC50?
RESULT: > 7.00

QUERY: Please give the measured pIC50 for this molecule: N#Cc1ccnc(N2C(=O)CC[C@H]2C(=O)N(c2ccc3[nH]ncc3c2)[C@H](C(=O)NC2CCC(F)(F)CC2)c2ccccc2Cl)c1 [Compound 203]
RESULT: > 7.00

QUERY: # lookup: pIC50 of N#Cc1ccnc(N2C(=O)CC[C@H]2C(=O)N(c2cc(F)cc(F)c2)[C@H](C(=O)NC2CC(F)(F)C2)c2c(Cl)cccc2Cl)c1 [Compound 199]
RESULT: > 7.00

QUERY: pIC50 for N#Cc1ccnc(N2C(=O)CC[C@H]2C(=O)N(c2cc(F)cc(F)c2)[C@H](C(=O)NC2CC(F)(F)C2)c2ccccc2Cl)c1F [Compound 88] ?
RESULT: > 7.00

QUERY: pIC50 lookup needed for N#Cc1cc(C#N)cc(N(C(=O)[C@@H]2CCC(=O)N2c2cc(C#N)ccn2)[C@H](C(=O)NC2CC(F)(F)C2)c2ccccc2Cl)c1 [Compound 153] , thanks.
RESULT: > 7.00
